biological target: Sodium/hydrogen exchanger 1 (Homo sapiens, UniProt P19634); experiment: Inhibition of human NHE1 expressed in PS120 cells
Sequence (P19634 whole entry): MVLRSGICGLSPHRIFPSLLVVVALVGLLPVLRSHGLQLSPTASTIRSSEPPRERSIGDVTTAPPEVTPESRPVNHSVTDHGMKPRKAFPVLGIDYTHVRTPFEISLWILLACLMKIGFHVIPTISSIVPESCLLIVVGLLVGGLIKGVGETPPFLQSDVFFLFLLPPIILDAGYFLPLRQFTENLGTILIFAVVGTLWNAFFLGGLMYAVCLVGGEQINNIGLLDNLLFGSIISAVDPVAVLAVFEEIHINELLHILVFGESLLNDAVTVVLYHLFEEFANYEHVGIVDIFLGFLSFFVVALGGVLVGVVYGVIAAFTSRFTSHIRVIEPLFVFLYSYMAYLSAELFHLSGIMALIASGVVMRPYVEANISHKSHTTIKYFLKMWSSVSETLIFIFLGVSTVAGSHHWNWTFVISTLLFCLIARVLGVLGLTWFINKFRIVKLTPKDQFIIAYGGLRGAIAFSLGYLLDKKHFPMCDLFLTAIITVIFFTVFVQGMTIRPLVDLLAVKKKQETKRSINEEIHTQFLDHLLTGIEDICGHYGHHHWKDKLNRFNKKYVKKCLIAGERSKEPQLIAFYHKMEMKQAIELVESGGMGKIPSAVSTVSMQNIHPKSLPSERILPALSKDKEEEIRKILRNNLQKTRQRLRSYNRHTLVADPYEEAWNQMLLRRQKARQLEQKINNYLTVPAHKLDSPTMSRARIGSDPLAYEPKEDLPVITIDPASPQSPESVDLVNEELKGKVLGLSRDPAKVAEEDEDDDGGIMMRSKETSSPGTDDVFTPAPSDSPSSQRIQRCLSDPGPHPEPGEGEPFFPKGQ
MEASURED_QUANTITY: pIC50
In textbook form, pIC50 equals minus log to base ten of the concentration in mol/L.

pIC50 in this record for `N=C(N)NC(=O)c1oc(-c2cccc(Cl)c2)cc1-n1cccc1` : 5.52

pIC50 in this record for `COc1ccccc1-c1cc(N)c(C(=O)N=C(N)N)o1` : 6.82

pIC50 in this record for `Cc1ccccc1-c1cc(N)c(C(=O)N=C(N)N)o1` : 6.62

pIC50 in this record for `COc1ccc(Cl)cc1-c1cc(NC(C)=O)c(C(=O)N=C(N)N)o1` : 5.35

pIC50 in this record for `COc1ccc(Cl)cc1-c1cc(N)c(C(=O)N=C(N)N)o1` : 7.82

pIC50 in this record for `N=C(N)NC(=O)c1oc(-c2cccc(Cl)c2)cc1N1CCCC1` : 5.29

pIC50 in this record for `Cc1cccc(-c2cc(N)c(C(=O)NC(=N)N)o2)c1` : 6.11

pIC50 in this record for `CC(=O)Nc1cc(-c2cccc(Cl)c2)oc1C(=O)NC(=N)N` : 4.85

pIC50 in this record for `NC(N)=NC(=O)c1oc(-c2ccccc2F)cc1N` : 5.92

pIC50 in this record for `NC(N)=NC(=O)c1oc(-c2cccc(F)c2)cc1N` : 6.17

pIC50 in this record for `COc1ccc(F)cc1-c1cc(N)c(C(=O)NC(=N)N)o1` : 6.92

----------
target: Sodium/hydrogen exchanger 1 (Homo sapiens, UniProt P19634); test: Inhibition of human NHE1 expressed in PS120 cells
MEASURED_QUANTITY: pIC50
In textbook form, pIC50 equals minus log to base ten of the concentration in mol/L.

Result for `N=C(N)NC(=O)c1oc(-c2cc(F)ccc2F)cc1N` , tested on Sodium/hydrogen exchanger 1 (Homo sapiens, UniProt P19634), pIC50: 6.39

Result for `Cc1cc(-c2cc(Cl)ccc2Cl)oc1C(=O)NC(=N)N` , tested on Sodium/hydrogen exchanger 1 (Homo sapiens, UniProt P19634), pIC50: 7.80

Result for `COc1ccc(Cl)cc1-c1cc(N(C)C)c(C(=O)N=C(N)N)o1` , tested on Sodium/hydrogen exchanger 1 (Homo sapiens, UniProt P19634), pIC50: 7.92

Result for `Cc1cc(-c2cccc(Cl)c2)oc1C(=O)NC(=N)N` , tested on Sodium/hydrogen exchanger 1 (Homo sapiens, UniProt P19634), pIC50: 7.62

Result for `CC(=O)Nc1cc(-c2ccccc2)oc1C(=O)N=C(N)N` , tested on Sodium/hydrogen exchanger 1 (Homo sapiens, UniProt P19634), pIC50: 4.85

Result for `CNc1cc(-c2ccccc2)oc1C(=O)N=C(N)N` , tested on Sodium/hydrogen exchanger 1 (Homo sapiens, UniProt P19634), pIC50: 6.09

Result for `NC(N)=NC(=O)c1oc(-c2cccc(Cl)c2)cc1N` , tested on Sodium/hydrogen exchanger 1 (Homo sapiens, UniProt P19634), pIC50: 6.82

Result for `CN(C)c1cc(-c2ccccc2)oc1C(=O)N=C(N)N` , tested on Sodium/hydrogen exchanger 1 (Homo sapiens, UniProt P19634), pIC50: 6.92

Result for `CN(C)c1cc(-c2cc(Cl)ccc2Cl)oc1C(=O)NC(=N)N` , tested on Sodium/hydrogen exchanger 1 (Homo sapiens, UniProt P19634), pIC50: 8.05

Result for `CNc1cc(-c2cccc(Cl)c2)oc1C(=O)N=C(N)N` , tested on Sodium/hydrogen exchanger 1 (Homo sapiens, UniProt P19634), pIC50: 6.09

Result for `CCc1cc(-c2cccc(Cl)c2)oc1C(=O)NC(=N)N` , tested on Sodium/hydrogen exchanger 1 (Homo sapiens, UniProt P19634), pIC50: 6.64

Result for `N=C(N)NC(=O)c1oc(-c2cc(Cl)ccc2Cl)cc1N` , tested on Sodium/hydrogen exchanger 1 (Homo sapiens, UniProt P19634), pIC50: 8.10

Result for `NC(N)=NC(=O)c1oc(-c2cc(Cl)ccc2Cl)cc1N1CCCC1` , tested on Sodium/hydrogen exchanger 1 (Homo sapiens, UniProt P19634), pIC50: 6.32

Result for `CC(=O)Nc1cc(-c2cc(Cl)ccc2Cl)oc1C(=O)N=C(N)N` , tested on Sodium/hydrogen exchanger 1 (Homo sapiens, UniProt P19634), pIC50: 5.21

Result for `CN(C)c1cc(-c2cccc(Cl)c2)oc1C(=O)N=C(N)N` , tested on Sodium/hydrogen exchanger 1 (Homo sapiens, UniProt P19634), pIC50: 6.92

Result for `COc1ccc(Cl)cc1-c1cc(C)c(C(=O)N=C(N)N)o1` , tested on Sodium/hydrogen exchanger 1 (Homo sapiens, UniProt P19634), pIC50: 8.00

Result for `CNc1cc(-c2cc(Cl)ccc2Cl)oc1C(=O)N=C(N)N` , tested on Sodium/hydrogen exchanger 1 (Homo sapiens, UniProt P19634), pIC50: 7.02

Result for `Cc1ccc(C)c(-c2cc(N)c(C(=O)NC(=N)N)o2)c1` , tested on Sodium/hydrogen exchanger 1 (Homo sapiens, UniProt P19634), pIC50: 7.14

Result for `Cc1cc(-c2cc(F)ccc2F)oc1C(=O)N=C(N)N` , tested on Sodium/hydrogen exchanger 1 (Homo sapiens, UniProt P19634), pIC50: 6.89

Result for `NC(N)=NC(=O)c1oc(-c2cccc(Cl)c2)cc1N1CCCCC1` , tested on Sodium/hydrogen exchanger 1 (Homo sapiens, UniProt P19634), pIC50: 4.80
